Test: chemical genetic growth profiling, strain panel (AID 1159580);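 also: tested at 20 µM; growth read once vehicle control cultures reached saturation at 30 °C; 1 = growth at the plate median or of vehicle wells; lower values mean less growth of the strain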
Conditions: S. cerevisiae deletion strains, growth OD, locus YBR023C, strain chs3, stronger effect = lower value
In all, about 5,500 compounds went through this assay and about 2,000 (36%) were called active. Not shown: some 18% with an inconclusive outcome. The list shows a part of the results.
MEASUREMENT TYPE: normalized growth

MOLECULE	NUMERIC READOUT
ClC(Cl)=C(c1ccc(Cl)cc1)c1ccc(Cl)cc1	0.983
[N-]=[N+]=CC(=O)OCC(N)C(=O)O (centres undefined)	0.995
CC(=O)O[C@H]1C[C@@]2(C)[C@H](c3ccoc3)OC(=O)[C@H]3O[C@]32[C@@]2(C)C1[C@]1(C)C(C[C@H]2OC(C)=O)C(C)(C)[C@H](OC(C)=O)C[C@@H]1OC(C)=O (some centres undefined)	1
O=C(O)c1cn(-c2ccc(F)cc2)c2cc(N3CCNCC3)c(F)cc2c1=O	0.966
CCn1cc(C(=O)O)c(=O)c2cc(F)c(N3CCNCC3)cc21	0.989
CNCCC=C1c2ccccc2CCc2ccccc21	0.956
CC(=O)O[C@@H]1CC2C(C)(C)C(=O)CC[C@]2(C)C2CC[C@@]3(C)[C@H](c4ccoc4)OC(=O)C4OC43[C@@]21C (some centres undefined)	0.992
CC(=O)O[C@@H]1CC2C(C)(C)CCC(=O)[C@]2(C)C2CC[C@@]3(C)[C@H](c4ccoc4)OC(=O)C4OC43[C@@]21C (some centres undefined)	1
CN(C)CCC=C1c2ccccc2C=Cc2ccccc21	0.978

---

# normalized growth per entry
Experiment: chemical genetic growth profiling, strain panel (AID 1159580)
Conditions: S. cerevisiae deletion strains, growth OD, locus YOR061W, strain CKA2, stronger effect = lower value
Hit rate of the full screen: of about 5,500 compounds, about 2,000 (36%) were called active. About 18% were inconclusive and are not listed. The list shows a part of the results.
MEASUREMENT TYPE: normalized growth

> print(dat)
                                    molecule  numeric.readout
 1  N/C(CSc1ccc(Cl)cc1)=N/OC(=O)c1ccc(C(F)(F)F)cc1            0.803
 2  CCC(/C=C/[C@@H](C)[C@H]1CCC2C3CC=C4C[C@@H](O)CC[C@]4(C)C3CC[C@@]21C)C(C)C (stereo partly specified)                1
 3  COC(=O)C1=C(C)NC(C)=C(C(=O)OC)C1c1ccccc1[N+](=O)[O-]            0.794
 4  Cc1ccc(C(=O)O/N=C(/N)CSc2ncccc2C(F)(F)F)cc1            0.982
 5  COC(=O)C1=C(C)NC(C)=C(C(=O)OCCN(C)Cc2ccccc2)C1c1cccc([N+](=O)[O-])c1 (stereo unspecified)            0.964
 6  N/C(CSc1ncccc1C(F)(F)F)=N/OC(=O)Nc1cccc(Cl)c1            0.931
 7  CC1(C)O[C@@H]2CC3C4CCC5=CC(=O)C=C[C@]5(C)[C@@]4(F)[C@@H](O)C[C@]3(C)[C@]2(C(=O)CO)O1 (stereo partly specified)             1.01
 8                 O=c1c2ccccc2oc2ccc(O)cc12            0.924
 9  C=C1C(N)CC2CC1C2(C)C (stereo unspecified)             1.01
10  CC(=O)CC(c1ccccc1)c1c(O)c2ccccc2oc1=O (stereo unspecified)             1.01
11  CC(=O)[C@H]1CCC2C3CC=C4C[C@@H](O)CC[C@]4(C)C3CC[C@@]21C (stereo partly specified)            0.991

---

Experiment: chemical genetic growth profiling, strain panel (AID 1159580)
Conditions: S. cerevisiae deletion strains, growth OD, locus YIL147C, strain SLN1, stronger effect = lower value
In all, about 5,500 compounds went through this assay and about 2,000 (36%) were called active. About 18% were inconclusive and are not listed. This is one part of the list.
# normalized growth per entry
MEASUREMENT TYPE: normalized growth

> print(dat)
                                   compound   measurement.type  numeric.readout
1     N#CCCCCOc1ccc2c(=O)cc(-c3ccccc3)oc2c1  normalized growth            0.974
2  CCC(C)COC(=O)/C=C/c1ccc(N=Cc2ccc(OC)cc2)cc1 (centres undefined)  normalized growth            0.965
3  O=C1c2ccccc2O[C@@H](c2ccccc2)[C@@H]1NC1CCCCC1  normalized growth            0.909
4  CCn1nc(C)cc1-c1nnc(Sc2ncc([N+](=O)[O-])s2)n1C  normalized growth            0.967

---

Assay: chemical genetic growth profiling, strain panel (AID 1159580);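 also: tested at 20 µM; growth read once vehicle control cultures reached saturation at 30 °C; 1 = growth at the plate median or of vehicle wells; lower values mean less growth of the strain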
Settings: S. cerevisiae deletion strains, growth OD, locus YEL003W, strain gim4
The campaign covered roughly 5,500 compounds. About 2,000 (36%) were called active. Not shown: some 18% with an inconclusive outcome. Rule as the data show it: active = normalized growth mostly below about 0.91 (no sharp cut-off); inconclusive = no clear call, values can overlap the other calls; inactive = mostly above about 0.92. Some of the results follow.
Classes used: active, inactive

> print(dat)
                                    molecule  category
 1         CC1=CCc2c(cc3oc(C)cc(=O)c3c2O)OC1  inactive
 2  NS(=O)(=O)c1cc2c(cc1C(F)(F)F)NCNS2(=O)=O  inactive
 3                            NCCc1ccc(O)cc1  inactive
 4   C=C1C(N)CC2CC1C2(C)C (stereo not given)  inactive
 5               CC1=NCCc2c1[nH]c1cc(O)ccc21  inactive
 6                         NCCc1ccc(O)c(O)c1  inactive
 7  CC(C)c1ccc2c(c1O)CC[C@H]1C3=C(CC[C@]21C)C(=O)OC3  inactive
 8  CN1CCOC(c2ccccc2)c2ccccc2C1 (stereo not given)  inactive
 9  CC1(C)O[C@@H]2CC3C4C[C@H](F)C5=CC(=O)C=C[C@]5(C)[C@@]4(F)[C@@H](O)C[C@]3(C)[C@]2(C(=O)CO)O1 (stereo not given in full)  inactive
10                        CCCCCCc1ccc(O)cc1O    active
11          Nc1nc(N)c2nc(-c3ccccc3)c(N)nc2n1  inactive
12         O=c1c(-c2ccccc2)coc2cc(O)cc(O)c12  inactive
13     CCCCC1C(=O)N(c2ccccc2)N(c2ccccc2)C1=O  inactive
14  COc1cc2c3cc1Oc1cc(ccc1O)C[C@@H]1c4c(cc(OC)c(O)c4Oc4ccc(cc4)C[C@@H]3N(C)CC2)CC[N+]1(C)C  inactive
15  CC[C@]12C=CCN3CC[C@@]4(c5ccc(OC)cc5N(C)C4[C@@](O)(C(=O)OC)[C@@H]1OC(C)=O)[C@@H]32 (stereo not given in full)  inactive

---

Assay: chemical genetic growth profiling, strain panel (AID 1159580);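 also: tested at 20 µM; growth read once vehicle control cultures reached saturation at 30 °C; 1 = growth at the plate median or of vehicle wells; lower values mean less growth of the strain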
Details: S. cerevisiae deletion strains, growth OD, locus YGL173C, strain kem1, stronger effect = lower value
The whole screen tested about 5,500 compounds, of which about 2,000 (36%) were called active. Inconclusive results (about 18%) are left out. Some of the results follow.
# normalized growth per entry

COMPOUND	normalized growth
CC1=NCCc2c1[nH]c1cc(O)ccc21	0.991
O=C1CC[C@]23C=CC(=O)NCCCCNCCCNC(=O)/C=C/c4ccc(c2c4)O[C@@H]3C1	1.02
CC(C)c1ccc2c(c1O)CC[C@H]1C3=C(CC[C@]21C)C(=O)OC3	0.971
C=CCc1ccccc1OCC(O)CNC(C)C (configuration not stated)	0.997
CC(=O)O[C@H]1C[C@H](O[C@H]2[C@@H](O)C[C@H](O[C@H]3[C@@H](O)C[C@H](O[C@H]4CC[C@@]5(C)C(CCC6C5C[C@@H](O)[C@]5(C)[C@@H](C7=CC(=O)OC7)CC[C@]65O)C4)O[C@@H]3C)O[C@@H]2C)O[C@H](C)[C@H]1O[C@@H]1O[C@H](CO)[C@@H](O)[C@H](O)[C@H]1O (some centres not stated)	1
COc1ccc(-c2coc3cc(OC(C)=O)cc(OC(C)=O)c3c2=O)cc1	0.922
CC(C)(O)[C@@H]1CC[C@](C)([C@H]2[C@@H](O)C[C@@]3(C)C4C[C@H](O[C@@H]5O[C@H](CO)[C@@H](O)[C@H](O)[C@H]5O)C5C(C)(C)[C@@H](O[C@@H]6OC[C@@H](O)[C@H](O)[C@H]6O)CC[C@@]56C[C@@]46CC[C@]23C)O1 (some centres not stated)	0.99

---

Assay: chemical genetic growth profiling, strain panel (AID 1159580);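 also: tested at 20 µM; growth read once vehicle control cultures reached saturation at 30 °C; 1 = growth at the plate median or of vehicle wells; lower values mean less growth of the strain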
Conditions: S. cerevisiae deletion strains, growth OD, locus YGL240W, strain doc1, stronger effect = lower value
The whole screen tested about 5,500 compounds, of which about 2,000 (36%) were called active. Roughly 18% stayed inconclusive and do not appear here. The list shows a part of the results.
MEASUREMENT TYPE: normalized growth

> print(dat)
                                    molecule  numeric.readout
 1  COc1ccc(-c2coc3cc(OC(C)=O)cc(OC(C)=O)c3c2=O)cc1            0.961
 2                           NCC(=O)CCC(=O)O            0.965
 3  CC(C)c1ccc2c(c1O)CC[C@H]1C3=C(CC[C@]21C)C(=O)OC3            0.953
 4  CCCN1C[C@H](CSC)C[C@@H]2c3cccc4[nH]cc(c34)C[C@H]21            0.991
 5  CN1CCOC(c2ccccc2)c2ccccc2C1 (stereo not given)            0.977
 6  CC1=C2C(=CO[C@H](C)[C@H]2C)C(=O)C(C(=O)O)=C1O             0.97
 7  COc1cc([C@@H]2c3cc4c(cc3[C@H](O)[C@H]3COC(=O)[C@@H]23)OCO4)cc(OC)c1OC             1.03
 8  CC[N+]1(C)CCCC(OC(=O)C(O)(c2ccccc2)c2ccccc2)C1 (stereo not given)             1.03
 9  COc1cc2c3cc1Oc1cc(ccc1O)C[C@@H]1c4c(cc(OC)c(O)c4Oc4ccc(cc4)C[C@@H]3N(C)CC2)CC[N+]1(C)C             1.02
10      O=c1c(-c2ccc(O)cc2)coc2cc(O)cc(O)c12             1.01

Reference source for all entries: PubChem BioAssay AID1159580
